Source of measurements: the RNAGym collection of RNA variant scans (doi:10.7554/elife.80360)

B1: HDV Ribozyme (parent)
chain: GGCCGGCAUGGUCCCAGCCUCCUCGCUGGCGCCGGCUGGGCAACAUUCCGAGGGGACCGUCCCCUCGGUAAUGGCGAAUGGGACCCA

Variants of: B1
measurement-protocol: self-cleavage, relative activity (ratio to wild type); higher = more cleavage; co-transcriptional
quantity: self-cleavage
Hey, just send me the number, nothing else.

Ask: Entry C32A U79A needs its self-cleavage filled in; supply it.
Reply: 0.121

Ask: Give self-cleavage for C32G C36G
Reply: 0.0449

Ask: Return self-cleavage (reported value) for this variant: U60G U72C
Reply: 0.489

Ask: For the variant C21A G73A , report self-cleavage.
Reply: 0.161

Ask: Let me know recorded self-cleavage for G59C G82A , thanks.
Reply: 0.32

Ask: Tell us which self-cleavage value is on record for G38U C49U
Reply: 0.172

Ask: Note self-cleavage for the variant shown: C7U C15G
Reply: 0.536

Ask: Query self-cleavage for G39U G40C
Reply: 0.451

Ask: Provide one value: measured self-cleavage of G39A G76A
Reply: 0.421

Ask: Give the reported value of self-cleavage for this record: U27C U69G
Reply: 0.712

Ask: Return reported self-cleavage. Input variant: G34U
Reply: 0.19

Ask: Report self-cleavage, nothing else, for this variant: G6A A16U
Reply: 0.446

Ask: Using known records, supply self-cleavage for C7U C14U
Reply: 0.785

Ask: State, in one line, measured self-cleavage of C7G C36U
Reply: 0.0504

Ask: Please give the documented self-cleavage of G1A G17U
Reply: 0.0449

Ask: Specify reported self-cleavage for the variant shown: G11U G40C
Reply: 0.0181

Ask: Identify measured self-cleavage corresponding to G38U G68C
Reply: 0.245

Ask: Determine from records and report self-cleavage for A16U G55U
Reply: 1.09

Ask: Answer with reported self-cleavage of G2A C36U
Reply: 0.537

Ask: Respond only with self-cleavage recorded for G39C C86U
Reply: 0.208

Ask: Consider the variant A42G G54U . State its measured self-cleavage.
Reply: 0.502

Ask: State its self-cleavage for this variant: G6C C36A
Reply: 0.095

Ask: # return recorded self-cleavage for entry C62G G82U
Reply: 0.0923

Ask: Supply recorded self-cleavage for G6U G50U here.
Reply: 0.475

Ask: Give self-cleavage for the following variant: U9C G55A
Reply: 1.27

Ask: Give reported self-cleavage value for C19U G80A
Reply: 0.0573

Ask: Dear colleague, please send me the reported self-cleavage for C15G G82U when you can.
Reply: 0.229

Ask: Supply self-cleavage value. Item: C36G C61G
Reply: 0.0386

Ask: // fetch self-cleavage given entry U27A C49G
Reply: 0.617

Ask: Please report the measured self-cleavage for U20A A56G
Reply: 0.0536

Ask: Please report self-cleavage for the following variant: A45C U79A
Reply: 0.208

Ask: Give recorded self-cleavage. G11C C14U
Reply: 0.285

Ask: Please report self-cleavage for the following variant: U9C A16G
Reply: 1.51

Ask: Read the entry C19U U27C and write its reported self-cleavage.
Reply: 0.135

Ask: Return the recorded self-cleavage value; entry: C3U C66G
Reply: 0.758

Ask: For the variant G39U G76A , give its measured self-cleavage value.
Reply: 0.67

Ask: For G11A G52A , write its self-cleavage.
Reply: 0.38

Ask: Supply reported self-cleavage belonging to this variant: G31A U47G
Reply: 0.192

Ask: Return the recorded self-cleavage value; entry: C7A A77U
Reply: 0.0875

Ask: Annotate the variant C57U G73U with its measured self-cleavage.
Reply: 0.338

Ask: Dear colleague, please send me the reported self-cleavage for C33G C62U when you can.
Reply: 0.259

Ask: Supply recorded self-cleavage for G17A A45C here.
Reply: 0.415

Ask: Supply measured self-cleavage of G6A G38C in your reply.
Reply: 0

Ask: Supply self-cleavage value. Item: C49G C84U
Reply: 0.429

Ask: Please look at this variant and report its self-cleavage: C3U A45C
Reply: 0.43

Ask: Quick one: give measured self-cleavage for G28C G40U
Reply: 0.032

Ask: Supply recorded self-cleavage for C15G U60G here.
Reply: 0.712

Ask: Specify reported self-cleavage for the variant shown: G10C U60A
Reply: 0.932

Ask: Tell us which self-cleavage value is on record for C14A G31A
Reply: 0.121

Ask: Give self-cleavage for the following variant: A16C G29C
Reply: 0

Ask: Report measured self-cleavage; entry is G38A U65G
Reply: 0.181

Ask: # return recorded self-cleavage for input G31A G34C
Reply: 0.0272

Ask: # return recorded self-cleavage for input C4A A45G
Reply: 0.138

Ask: // Input: G50C G80A . Output its self-cleavage only.
Reply: 0.523

Ask: Note self-cleavage for the variant shown: C4U U47A
Reply: 0.739

Ask: Return self-cleavage (reported value) for this variant: U9G C84A
Reply: 0.554

Ask: Indicate the recorded self-cleavage value for this variant: G80A G82U
Reply: 0.0511

Ask: Given the variant G35A G40A , write its reported self-cleavage.
Reply: 0.346

Ask: Provide measured self-cleavage value, entry: U23C G74U
Reply: 0.554

Ask: Supply reported self-cleavage belonging to this variant: G35U G59U
Reply: 0.53

Ask: Return reported self-cleavage. Input variant: C26A C58A
Reply: 1.24

Ask: Please list self-cleavage recorded for the variant C26U G73A
Reply: 0.747

Ask: Give the reported value of self-cleavage for this record: C32G C57U
Reply: 0.0702

Ask: State its self-cleavage for this variant: G29A G59C
Reply: 0.123

Ask: Provide one value: measured self-cleavage of C22U G25U
Reply: 0.0287

Ask: State its self-cleavage: C19U C66U
Reply: 0.22

Ask: Quote self-cleavage reported for G25U U37A please.
Reply: 0.0831

Ask: Output measured self-cleavage for this item: G34U A71C
Reply: 0.161

Ask: Read the entry G11C G17U and write its reported self-cleavage.
Reply: 0.332

Ask: For C24U A83G , write its self-cleavage.
Reply: 0.394

Ask: Return the recorded self-cleavage value; entry: U27C C85G
Reply: 0.751

Ask: Please supply the value of reported self-cleavage for the item A42U G50A
Reply: 0.383

Ask: Give the measured self-cleavage for C57U A70C
Reply: 0.855

Ask: Look up and state reported self-cleavage for U69A G73A
Reply: 0.619

Ask: Supply measured self-cleavage of G38C C61G in your reply.
Reply: 0.219

Ask: Quickly give me recorded self-cleavage for C24A G29C
Reply: 0.136

Ask: Identify measured self-cleavage associated with G55A C75U
Reply: 0.208

Ask: # return recorded self-cleavage for input C32G A42G
Reply: 0.0426

Ask: Look up and report measured self-cleavage for this entry: G39C G52C
Reply: 0.309

Ask: Using known records, supply self-cleavage for G25A C84A
Reply: 0.175

Ask: Give the measured self-cleavage for U23C C30G
Reply: 0.0437

Ask: Supply recorded self-cleavage for C13U G34A here.
Reply: 0.0875

Ask: Look up self-cleavage of C4U U27A and report it.
Reply: 0.246

Ask: Look up self-cleavage of U9A C86A and report it.
Reply: 0.554

Ask: Give the reported self-cleavage for this variant. A56U A77C
Reply: 0.341

Ask: Output measured self-cleavage for this item: A56C C86A
Reply: 0.87

Ask: Fill in reported self-cleavage for this entry: U46G G81U
Reply: 0.249

Ask: Please give the documented self-cleavage of G1A G82A
Reply: 0

Ask: Quickly give me recorded self-cleavage for C19A U65C
Reply: 0.155

Ask: Could you please provide reported self-cleavage for C7G U12A ? Thanks!
Reply: 0

Ask: Please look at this variant and report its self-cleavage: U27C A56U
Reply: 0.674
